Assay: Biodistribution and pharmacokinetics in plasma and liver after intravenous administration in mice
Assay type: in vivo
Settings: male, C57 BL/6, mouse, plasma, iv, 5 mg/kg, plasma, 5 mg/kg intravenous, read-out: AUC0-t, plasma
Readings of AUC(0-t) for the listed molecules
quantity: AUC(0-t) (ng·h/mL)

molecule	unit-spec	recorded-measurement
C[C@H](CCC(=O)N[C@@H](CC(=O)O)C(=O)OC1CCN(C(=O)[C@H](Cc2ccc(F)cc2)NC(=O)c2cc3cc(Cl)ncc3[nH]2)CC1)[C@H]1CC[C@H]2[C@@H]3[C@H](O)C[C@@H]4C[C@H](O)CC[C@]4(C)[C@H]3C[C@H](O)[C@]12C [Conjugate 6]	ng·h/mL	1520
O=C(N[C@@H](Cc1ccc(F)cc1)C(=O)N1CCC(O)CC1)c1cc2cc(Cl)ncc2[nH]1	ng·h/mL	965

* * *

Assay: Stability in mouse liver microsomes (MLM)
Type: in vitro ADME
Details: C57BL/6, pH 7.4, n = 3
quantity: log10 of microsomal CLint at 10 μM (log10 of the value in µL/min/mg)

molecule	log10 of microsomal CLint at 10 μM
C[C@H](NC(=O)CC[C@@H](C)[C@H]1CC[C@H]2[C@@H]3[C@H](O)C[C@@H]4C[C@H](O)CC[C@]4(C)[C@H]3C[C@H](O)[C@]12C)C(=O)OC1CCN(C(=O)[C@H](Cc2ccc(F)cc2)NC(=O)c2cc3cc(Cl)ncc3[nH]2)CC1 [Conjugate 3]	1.70
C[C@H](CCC(=O)NCC(=O)OC1CCN(C(=O)[C@H](Cc2ccc(F)cc2)NC(=O)c2cc3cc(Cl)ncc3[nH]2)CC1)[C@H]1CC[C@H]2[C@@H]3[C@H](O)C[C@@H]4C[C@H](O)CC[C@]4(C)[C@H]3C[C@H](O)[C@]12C [Conjugate 1]	1.64
O=C(O)Cc1ccccc1Nc1c(Cl)cccc1Cl [Diclofenac, diclofenac, reference compound]	1.72
C[C@H](CCC(=O)N[C@@H](CC(=O)O)C(=O)OC1CCN(C(=O)[C@H](Cc2ccc(F)cc2)NC(=O)c2cc3cc(Cl)ncc3[nH]2)CC1)[C@H]1CC[C@H]2[C@@H]3[C@H](O)C[C@@H]4C[C@H](O)CC[C@]4(C)[C@H]3C[C@H](O)[C@]12C [Conjugate 6]	1.21
C[C@H](CCC(=O)NCCNC(=O)c1ccc(/N=N/c2ccccc2CCC(=O)OC2CCN(C(=O)[C@H](Cc3ccc(F)cc3)NC(=O)c3cc4cc(Cl)ncc4[nH]3)CC2)cc1)[C@H]1CC[C@H]2[C@@H]3[C@H](O)C[C@@H]4C[C@H](O)CC[C@]4(C)[C@H]3C[C@H](O)[C@]12C [Conjugate 9]	1.18
CC(NC(=O)C(NC(=O)CCC(C)C1CCC2C3C(O)CC4CC(O)CCC4(C)C3CC(O)C12C)C(C)C)C(=O)OC1CCN(C(=O)C(Cc2ccc(F)cc2)NC(=O)c2cc3cc(Cl)ncc3[nH]2)CC1 (stereo not drawn) [Conjugate 7]	2.47
CC(CCC(=O)NC(Cc1ccccc1)C(=O)NC(CCCCN)C(=O)OC1CCN(C(=O)C(Cc2ccc(F)cc2)NC(=O)c2cc3cc(Cl)ncc3[nH]2)CC1)C1CCC2C3C(O)CC4CC(O)CCC4(C)C3CC(O)C12C (stereo not drawn) [Conjugate 8]	1.21
C[C@H](CCC(=O)N[C@@H](CO)C(=O)OC1CCN(C(=O)[C@H](Cc2ccc(F)cc2)NC(=O)c2cc3cc(Cl)ncc3[nH]2)CC1)[C@H]1CC[C@H]2[C@@H]3[C@H](O)C[C@@H]4C[C@H](O)CC[C@]4(C)[C@H]3C[C@H](O)[C@]12C [Conjugate 5]	1.53

* * *

Assay: Stability in mouse liver microsomes (MLM)
Assay type: in vitro ADME
Conditions: C57BL/6, pH 7.4, n = 3
The entries below come with measured half-life at 10 μM values attached.

molecule	half-life at 10 μM [min]
C[C@H](NC(=O)CC[C@@H](C)[C@H]1CC[C@H]2[C@@H]3[C@H](O)C[C@@H]4C[C@H](O)CC[C@]4(C)[C@H]3C[C@H](O)[C@]12C)C(=O)OC1CCN(C(=O)[C@H](Cc2ccc(F)cc2)NC(=O)c2cc3cc(Cl)ncc3[nH]2)CC1 [Conjugate 3]	27.4
C[C@H](CCC(=O)N(C)CC(=O)OC1CCN(C(=O)[C@H](Cc2ccc(F)cc2)NC(=O)c2cc3cc(Cl)ncc3[nH]2)CC1)[C@H]1CC[C@H]2[C@@H]3[C@H](O)C[C@@H]4C[C@H](O)CC[C@]4(C)[C@H]3C[C@H](O)[C@]12C [Conjugate 2]	24.9

* * *

Experiment: Stability in mouse liver microsomes (MLM)
Type: in vitro ADME
Conditions: C57BL/6, pH 7.4, n = 3
Quick list: log10 half-life at 10 μM per entry.
quantity: log10 half-life at 10 μM (log10 of the value in min)

molecule	log10 half-life at 10 μM
C[C@H](CCC(=O)N[C@@H](CO)C(=O)OC1CCN(C(=O)[C@H](Cc2ccc(F)cc2)NC(=O)c2cc3cc(Cl)ncc3[nH]2)CC1)[C@H]1CC[C@H]2[C@@H]3[C@H](O)C[C@@H]4C[C@H](O)CC[C@]4(C)[C@H]3C[C@H](O)[C@]12C [Conjugate 5]	1.61
C[C@H](CCC(=O)N[C@@H](CC(=O)O)C(=O)OC1CCN(C(=O)[C@H](Cc2ccc(F)cc2)NC(=O)c2cc3cc(Cl)ncc3[nH]2)CC1)[C@H]1CC[C@H]2[C@@H]3[C@H](O)C[C@@H]4C[C@H](O)CC[C@]4(C)[C@H]3C[C@H](O)[C@]12C [Conjugate 6]	1.93
CC(C)[C@H](NC(=O)CC[C@@H](C)[C@H]1CC[C@H]2[C@@H]3[C@H](O)C[C@@H]4C[C@H](O)CC[C@]4(C)[C@H]3C[C@H](O)[C@]12C)C(=O)OC1CCN(C(=O)[C@H](Cc2ccc(F)cc2)NC(=O)c2cc3cc(Cl)ncc3[nH]2)CC1 [Conjugate 4]	1.56
O=C(O)Cc1ccccc1Nc1c(Cl)cccc1Cl [Diclofenac, diclofenac, reference compound]	1.42
C[C@H](CCC(=O)NCC(=O)OC1CCN(C(=O)[C@H](Cc2ccc(F)cc2)NC(=O)c2cc3cc(Cl)ncc3[nH]2)CC1)[C@H]1CC[C@H]2[C@@H]3[C@H](O)C[C@@H]4C[C@H](O)CC[C@]4(C)[C@H]3C[C@H](O)[C@]12C [Conjugate 1]	1.50
CC(NC(=O)C(NC(=O)CCC(C)C1CCC2C3C(O)CC4CC(O)CCC4(C)C3CC(O)C12C)C(C)C)C(=O)OC1CCN(C(=O)C(Cc2ccc(F)cc2)NC(=O)c2cc3cc(Cl)ncc3[nH]2)CC1 (stereo not drawn) [Conjugate 7]	0.67

* * *

Molecular target: rabbit muscle GPa (RMGPa) (Oryctolagus cuniculus)
Sequence (P00489 2-843 limits assumed): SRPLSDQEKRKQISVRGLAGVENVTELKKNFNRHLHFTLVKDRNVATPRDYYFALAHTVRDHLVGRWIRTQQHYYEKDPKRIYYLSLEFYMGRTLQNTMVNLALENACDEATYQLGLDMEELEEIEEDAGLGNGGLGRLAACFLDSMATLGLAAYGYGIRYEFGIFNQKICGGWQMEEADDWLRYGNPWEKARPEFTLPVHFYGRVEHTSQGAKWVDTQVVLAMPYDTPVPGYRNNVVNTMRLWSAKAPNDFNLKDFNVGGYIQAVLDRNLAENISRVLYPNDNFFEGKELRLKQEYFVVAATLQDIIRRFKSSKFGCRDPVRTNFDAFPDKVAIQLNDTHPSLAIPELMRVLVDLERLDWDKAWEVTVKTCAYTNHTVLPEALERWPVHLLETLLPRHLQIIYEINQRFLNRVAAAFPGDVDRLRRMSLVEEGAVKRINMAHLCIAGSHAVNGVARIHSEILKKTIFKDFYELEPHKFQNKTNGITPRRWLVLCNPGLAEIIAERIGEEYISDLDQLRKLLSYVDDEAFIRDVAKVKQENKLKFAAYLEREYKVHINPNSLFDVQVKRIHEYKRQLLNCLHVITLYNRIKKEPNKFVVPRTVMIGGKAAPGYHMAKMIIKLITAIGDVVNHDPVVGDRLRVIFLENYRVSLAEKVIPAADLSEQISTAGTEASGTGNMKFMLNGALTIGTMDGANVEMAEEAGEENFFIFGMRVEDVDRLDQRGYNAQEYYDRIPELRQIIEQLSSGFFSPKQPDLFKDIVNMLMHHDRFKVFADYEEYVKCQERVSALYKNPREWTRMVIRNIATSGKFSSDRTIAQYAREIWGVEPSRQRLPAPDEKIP
pIC50: −log10 of the molar value.
pIC50 for assorted molecules
quantity: pIC50

molecule	subject-of-test	recorded-measurement
O=C(N[C@@H](Cc1ccc(F)cc1)C(=O)N1CCC(O)CC1)c1cc2cc(Cl)ncc2[nH]1	rabbit muscle GPa (RMGPa) (Oryctolagus cuniculus)	6.38
C[C@H](CCC(=O)NCCNC(=O)c1ccc(/N=N/c2ccccc2CCC(=O)OC2CCN(C(=O)[C@H](Cc3ccc(F)cc3)NC(=O)c3cc4cc(Cl)ncc4[nH]3)CC2)cc1)[C@H]1CC[C@H]2[C@@H]3[C@H](O)C[C@@H]4C[C@H](O)CC[C@]4(C)[C@H]3C[C@H](O)[C@]12C [Conjugate 9]	rabbit muscle GPa (RMGPa) (Oryctolagus cuniculus)	4.29
CC(NC(=O)C(NC(=O)CCC(C)C1CCC2C3C(O)CC4CC(O)CCC4(C)C3CC(O)C12C)C(C)C)C(=O)OC1CCN(C(=O)C(Cc2ccc(F)cc2)NC(=O)c2cc3cc(Cl)ncc3[nH]2)CC1 (centres unmarked) [Conjugate 7]	rabbit muscle GPa (RMGPa) (Oryctolagus cuniculus)	5.22
CC(C)[C@H](N)C(=O)OC1CCN(C(=O)[C@H](Cc2ccc(F)cc2)NC(=O)c2cc3cc(Cl)ncc3[nH]2)CC1	rabbit muscle GPa (RMGPa) (Oryctolagus cuniculus)	6.06
C[C@H](CCC(=O)N[C@@H](CC(=O)O)C(=O)OC1CCN(C(=O)[C@H](Cc2ccc(F)cc2)NC(=O)c2cc3cc(Cl)ncc3[nH]2)CC1)[C@H]1CC[C@H]2[C@@H]3[C@H](O)C[C@@H]4C[C@H](O)CC[C@]4(C)[C@H]3C[C@H](O)[C@]12C [Conjugate 6]	rabbit muscle GPa (RMGPa) (Oryctolagus cuniculus)	4.51
